tgt: CDK3/Cyclin E1 (Homo sapiens, UniProt Q00526)
Sequence (Q00526 whole entry): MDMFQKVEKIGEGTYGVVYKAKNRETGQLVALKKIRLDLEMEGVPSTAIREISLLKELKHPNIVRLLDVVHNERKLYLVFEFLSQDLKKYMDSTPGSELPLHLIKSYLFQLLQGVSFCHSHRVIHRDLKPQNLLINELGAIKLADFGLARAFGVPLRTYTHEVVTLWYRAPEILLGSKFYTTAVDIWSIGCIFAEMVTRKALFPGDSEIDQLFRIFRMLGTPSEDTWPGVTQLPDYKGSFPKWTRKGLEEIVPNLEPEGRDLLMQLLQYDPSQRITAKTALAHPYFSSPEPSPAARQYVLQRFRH
Sequence (P24864 whole entry partner): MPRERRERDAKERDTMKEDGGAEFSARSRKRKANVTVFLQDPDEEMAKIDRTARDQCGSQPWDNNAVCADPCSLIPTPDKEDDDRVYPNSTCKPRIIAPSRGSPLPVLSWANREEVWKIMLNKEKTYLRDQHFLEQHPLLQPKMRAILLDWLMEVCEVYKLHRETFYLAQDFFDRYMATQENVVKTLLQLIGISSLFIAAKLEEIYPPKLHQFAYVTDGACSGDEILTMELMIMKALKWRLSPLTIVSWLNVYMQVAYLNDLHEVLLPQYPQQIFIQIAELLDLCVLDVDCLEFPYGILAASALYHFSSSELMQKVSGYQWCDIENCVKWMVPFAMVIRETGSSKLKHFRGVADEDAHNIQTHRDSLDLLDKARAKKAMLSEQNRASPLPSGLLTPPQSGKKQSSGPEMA
assay notes: NanoBRET live-cell target engagement, CDK3-NanoLuc/Cyclin E1 in HEK-293
Type: binding
experimental parameters: CDK3/E1; average; read-out: Inhibition at 10µM (%)
property: inhibition at 10 µM (%)

compound: COc1ccccc1-c1cc(Nc2cccc(CS(N)(=O)=O)c2)ncn1 [LDC000067]
measurement unit: %
inhibition at 10 µM: 27.7

a = N#CCNC(=O)c1ccc(-c2ccnc(Nc3ccc(N4CCOCC4)cc3)n2)cc1 [Momelotinib]
b = CC(C)N1CCN(c2ccc(Nc3ncc4cc5n(c4n3)C3(CCCCC3)CNC5=O)nc2)CC1 [Lerociclib]
c = CN1CC[C@H](c2c(O)cc(O)c3c(=O)cc(-c4ccccc4Cl)oc23)[C@H](O)C1 [Flavopiridol]
Q) Sort the compounds on inhibition at 10 µM; start with the lowest figure. Order the labels as requested and give them as your answer.
A) b, a, c
(b: 3.3%, a: 28.6%, c: 80.6%)

* * *

This listing pairs compounds with measured Inhibition at 10µM (%).
tgt: CDK7 (Homo sapiens)
Sequence (P50613 whole entry): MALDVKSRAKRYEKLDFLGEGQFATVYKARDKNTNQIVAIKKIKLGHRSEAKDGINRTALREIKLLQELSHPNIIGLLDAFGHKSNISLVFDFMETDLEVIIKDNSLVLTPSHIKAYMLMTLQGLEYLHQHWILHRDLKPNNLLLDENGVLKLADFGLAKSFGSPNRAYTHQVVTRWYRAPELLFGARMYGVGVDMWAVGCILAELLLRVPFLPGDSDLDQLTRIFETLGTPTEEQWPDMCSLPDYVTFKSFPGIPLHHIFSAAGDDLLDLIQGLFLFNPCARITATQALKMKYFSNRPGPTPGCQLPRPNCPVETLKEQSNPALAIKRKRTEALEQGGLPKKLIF
assay notes: NanoBRET live-cell target engagement, NanoLuc-CDK7 in HEK-293
Assay type: binding
experimental parameters: CDK7; average
Write it as a number; the unit % goes unstated.

Known results for compounds:
compound: CCn1cnc2c(Nc3cccc(Cl)c3)nc(N[C@@H]3CCCC[C@@H]3N)nc21 [CGP74514A]
measurement unit: %
Inhibition at 10µM (%): 93.3
--
compound: CN1CCC(c2c(O)cc(O)c3c(=O)cc(-c4ccccc4Cl)oc23)C1CO (stereo not shown)
measurement unit: %
Inhibition at 10µM (%): 32.2
--
compound: CC(C)c1c2cc(-c3ccnc(N[C@H]4CC[C@H](NC5CCOCC5)CC4)n3)ccc2nn1C
measurement unit: %
Inhibition at 10µM (%): 92.6

Here is the next item to consider.
Q) State the measured Inhibition at 10µM (%) (CDK7 (Homo sapiens)) of CC(C)c1cnn2c(NCc3ccccc3-n3cccn3)nc(OC3CCCNC3)nc12 (stereo not shown)
A) 93.9

* * *

This listing pairs molecules with measured pIC50.
tgt: CDK1/Cyclin E1 (Homo sapiens, UniProt P06493)
Sequence (P06493 whole entry): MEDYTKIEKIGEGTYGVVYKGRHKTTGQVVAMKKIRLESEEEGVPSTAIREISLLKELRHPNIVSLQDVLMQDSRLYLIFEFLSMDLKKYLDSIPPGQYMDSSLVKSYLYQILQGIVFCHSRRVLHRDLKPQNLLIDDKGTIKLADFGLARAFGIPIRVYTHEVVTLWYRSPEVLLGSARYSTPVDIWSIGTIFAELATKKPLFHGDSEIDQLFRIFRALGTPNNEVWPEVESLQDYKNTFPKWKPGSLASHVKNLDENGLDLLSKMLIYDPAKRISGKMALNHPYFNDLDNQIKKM
Sequence (P24864 whole entry partner): as the sequence (P24864 whole entry partner) above
assay notes: NanoBRET live-cell target engagement, CDK1-NanoLuc/Cyclin E1 in HEK-293
Type: binding
experimental parameters: CDK1/E1; experiment 2; read-out: IC50
In plain terms, pIC50 is the concentration in mol/L turned into minus its base-10 logarithm.

molecule: CCn1cnc2c(Nc3cccc(Cl)c3)nc(N[C@@H]3CCCC[C@@H]3N)nc21 [CGP74514A]
pIC50: 6.79
//
molecule: CS(=O)(=O)N1CCC(NC(=O)c2[nH]ncc2NC(=O)c2c(Cl)cccc2Cl)CC1 [NVP-LCQ195]
pIC50: 6.97

Q) Please give measured pIC50 of the following entry: CC(C)c1cnn2c(NCc3ccccc3-n3cccn3)nc(OC3CCCNC3)nc12 (stereo not drawn) [LDC4297]
A) 6.96

* * *

tgt: CDK1/Cyclin E1 (Homo sapiens, UniProt P06493)
assay notes: NanoBRET live-cell target engagement, CDK1-NanoLuc/Cyclin E1 in HEK-293
Assay type: binding
experimental parameters: 10µM; average of experiments
This listing pairs compounds with measured CDK1/E1 Inhibition at 10µM (%).
Write it as a number; the unit % goes unstated.

compound: O=C1NCCc2[nH]c(-c3ccncc3)cc21
property: CDK1/E1 Inhibition at 10µM (%)
value observed: 20.9
//
compound: O=C1NC(=NCc2cccs2)S/C1=C\c1ccc2ncccc2c1
property: CDK1/E1 Inhibition at 10µM (%)
value observed: 81.7
//
compound: Cc1c(Br)c(Br)c2c3c1nc(N1CCNCC1)n3CCC2.Cl [SEL 120-34A]
property: CDK1/E1 Inhibition at 10µM (%)
value observed: 37.6

Here is the next item to consider.
Q) Please give measured CDK1/E1 Inhibition at 10µM (%) of the following entry: CN(C)C/C=C/C(=O)Nc1ccc(C(=O)Nc2cccc(Nc3ncc(Cl)c(-c4c[nH]c5ccccc45)n3)c2)cc1
A) 91.9

* * *

tgt: CDK2/Cyclin E1 (Homo sapiens)
assay notes: NanoBRET live-cell target engagement, CDK2-NanoLuc/Cyclin E1 in HEK-293
Assay type: binding
experimental parameters: independent experiment 3; read-out: CDK2/E1 IC50
property: pIC50
In plain terms, pIC50 is the concentration in mol/L turned into minus its base-10 logarithm.

Q) Please give measured pIC50 of the following entry: COCCN1CCN(Cc2ccc(-c3n[nH]c4c3C(=O)c3c(NC(=O)NN5CCOCC5)cccc3-4)cc2)CC1
A) 7.64

* * *

tgt: CDK9/Cyclin K (Homo sapiens, UniProt P50750)
Sequence (P50750 whole entry): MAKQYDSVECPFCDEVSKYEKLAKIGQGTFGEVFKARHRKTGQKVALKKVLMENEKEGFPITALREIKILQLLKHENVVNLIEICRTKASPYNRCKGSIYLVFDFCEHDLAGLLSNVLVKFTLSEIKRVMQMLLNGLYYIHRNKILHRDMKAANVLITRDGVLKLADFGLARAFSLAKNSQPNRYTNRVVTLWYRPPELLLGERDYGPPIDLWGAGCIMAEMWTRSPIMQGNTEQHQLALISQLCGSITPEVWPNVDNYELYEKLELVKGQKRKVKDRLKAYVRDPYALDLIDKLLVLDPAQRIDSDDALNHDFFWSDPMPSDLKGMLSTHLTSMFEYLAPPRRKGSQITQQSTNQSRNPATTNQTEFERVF
Sequence (O75909 whole entry partner): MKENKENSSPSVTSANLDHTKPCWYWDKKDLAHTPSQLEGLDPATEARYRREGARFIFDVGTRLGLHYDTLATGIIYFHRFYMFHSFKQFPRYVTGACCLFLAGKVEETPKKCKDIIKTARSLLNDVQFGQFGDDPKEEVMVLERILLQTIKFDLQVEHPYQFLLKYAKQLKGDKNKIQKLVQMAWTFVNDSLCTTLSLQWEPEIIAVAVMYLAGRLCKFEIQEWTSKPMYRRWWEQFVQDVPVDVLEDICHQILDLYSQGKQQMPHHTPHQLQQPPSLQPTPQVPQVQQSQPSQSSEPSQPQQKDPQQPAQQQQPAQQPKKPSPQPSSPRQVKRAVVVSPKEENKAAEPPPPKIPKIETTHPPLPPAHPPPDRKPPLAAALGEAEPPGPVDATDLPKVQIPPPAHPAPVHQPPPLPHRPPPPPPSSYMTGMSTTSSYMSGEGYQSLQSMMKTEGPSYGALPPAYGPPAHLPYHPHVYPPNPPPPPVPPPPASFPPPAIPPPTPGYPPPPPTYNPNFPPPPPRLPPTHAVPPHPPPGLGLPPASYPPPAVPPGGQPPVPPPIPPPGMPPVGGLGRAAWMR
assay notes: NanoBRET live-cell target engagement, NanoLuc-CDK9/Cyclin K in HEK-293
Format: binding
experimental parameters: 10µM; average of experiments
property: CDK9/K Inhibition at 10µM (%)
Write it as a number; the unit % goes unstated.

compound: O=C1NCCc2[nH]c(-c3ccncc3)cc21
measurement unit: %
CDK9/K Inhibition at 10µM (%): 95.5

Q) Please give measured CDK9/K Inhibition at 10µM (%) of the following entry: O=C1NC(=NCc2cccs2)S/C1=C\c1ccc2ncccc2c1
A) 29.2

Q) Please give measured CDK9/K Inhibition at 10µM (%) of the following entry: CN(C)C/C=C/C(=O)Nc1ccc(C(=O)Nc2cccc(Nc3ncc(Cl)c(-c4c[nH]c5ccccc45)n3)c2)cc1
A) 70.0

Q) Please give measured CDK9/K Inhibition at 10µM (%) of the following entry: Cc1c(Br)c(Br)c2c3c1nc(N1CCNCC1)n3CCC2.Cl [SEL 120-34A]
A) 71.2

* * *

tgt: CDK5/CDK5R1 (Homo sapiens)
Sequence (Q00535 whole entry): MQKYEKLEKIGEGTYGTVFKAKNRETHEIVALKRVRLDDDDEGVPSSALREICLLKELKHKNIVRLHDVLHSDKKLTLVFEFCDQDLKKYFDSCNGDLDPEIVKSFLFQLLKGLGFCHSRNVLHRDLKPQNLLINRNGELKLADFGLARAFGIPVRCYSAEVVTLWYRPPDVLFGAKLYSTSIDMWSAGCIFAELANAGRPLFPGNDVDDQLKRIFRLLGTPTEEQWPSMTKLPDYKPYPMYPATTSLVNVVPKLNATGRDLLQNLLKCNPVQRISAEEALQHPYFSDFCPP
Sequence (Q15078 whole entry partner): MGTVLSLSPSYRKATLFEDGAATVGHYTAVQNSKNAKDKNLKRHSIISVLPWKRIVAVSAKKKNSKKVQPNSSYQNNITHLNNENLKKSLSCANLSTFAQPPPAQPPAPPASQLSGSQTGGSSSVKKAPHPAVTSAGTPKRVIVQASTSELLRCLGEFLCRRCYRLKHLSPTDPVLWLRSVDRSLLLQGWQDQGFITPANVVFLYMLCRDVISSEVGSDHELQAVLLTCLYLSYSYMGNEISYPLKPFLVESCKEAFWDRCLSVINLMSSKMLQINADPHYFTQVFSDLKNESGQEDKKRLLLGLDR
assay notes: NanoBRET live-cell target engagement, CDK5-NanoLuc/CDK5R1 in HEK-293
Type: binding
experimental parameters: independent experiment 1; read-out: CDK5/CDK5R1 IC50
property: IC50 (nM)

molecule: COCCN1CCN(Cc2ccc(-c3n[nH]c4c3C(=O)c3c(NC(=O)NN5CCOCC5)cccc3-4)cc2)CC1 [RGB286638]
measurement unit: nM
IC50: 80

A = CC(C)CC(=O)Nc1[nH]nc2c1CN(C(=O)C1CCN(C)CC1)C2(C)C [PHA-793887]
B = CN1C/C=C/CCOc2cccc(c2)-c2ccnc(n2)Nc2cccc(c2)C1 [SB1317]
Q) Quick one: lower IC50, A or B ? Refer to your chosen entry by its label in the reply.
A) B

* * *

tgt: CDK2/Cyclin E1 (Homo sapiens)
assay notes: NanoBRET live-cell target engagement, CDK2-NanoLuc/Cyclin E1 in HEK-293
Format: binding
experimental parameters: CDK2/E1; experiment 2; read-out: Inhibition at 10µM (%)
property: inhibition at 10 µM (%)

Known results for compounds:
compound: COC1CN(C(=O)c2ccc3c(N)ncc(-c4ccc(-c5cnn(C)c5)cc4)c3n2)C1
measurement unit: %
value observed: -0.0714
//
compound: CNC(=O)c1nn(C)c2c1C(C)(C)Cc1cnc(Nc3ccc(N4CCN(C)CC4)cc3)nc1-2
measurement unit: %
value observed: 77.7
//
compound: CC(C)N1CCN(c2ccc(Nc3ncc4cc5n(c4n3)C3(CCCCC3)CNC5=O)nc2)CC1
measurement unit: %
value observed: -0.6
//
compound: COc1ccccc1-c1cc(Nc2cccc(CS(N)(=O)=O)c2)ncn1
measurement unit: %
value observed: 22.2
//
compound: Cn1cc(-c2ccc(-c3cncc(Cl)c3N3CCC4(CCNC4=O)CC3)cc2)cn1
measurement unit: %
value observed: -6.1

a = CN1CC[C@H](c2c(O)cc(O)c3c(=O)cc(-c4ccccc4Cl)oc23)[C@H](O)C1
b = CN1CCN(c2ccc(Nc3ncc4cc(C#N)c(=O)n(C5CCCC5)c4n3)cc2)CC1
Q) Hi, I'm comparing a with b and wondering which one has the bigger number for inhibition at 10 µM. Any idea? Refer to your chosen entry by its label in the reply.
A) a

* * *

tgt: CDK9/Cyclin K (Homo sapiens, UniProt P50750)
assay notes: NanoBRET live-cell target engagement, NanoLuc-CDK9/Cyclin K in HEK-293
Type: binding
experimental parameters: CDK9/K; average
property: Inhibition at 10µM (%)
Write it as a number; the unit % goes unstated.

compound: CN1CCC(c2c(O)cc(O)c3c(=O)cc(-c4ccccc4Cl)oc23)C1CO (stereo not shown)
tgt: CDK9/Cyclin K (Homo sapiens, UniProt P50750)
value observed: 96.7

Q) Please give measured Inhibition at 10µM (%) of the following entry: CC(C)c1cnn2c(NCc3ccccc3-n3cccn3)nc(OC3CCCNC3)nc12 (stereo not shown)
A) 42.4

Q) Please give measured Inhibition at 10µM (%) of the following entry: CC(C)c1c2cc(-c3ccnc(N[C@H]4CC[C@H](NC5CCOCC5)CC4)n3)ccc2nn1C
A) 97.9

Q) Please give measured Inhibition at 10µM (%) of the following entry: CCn1cnc2c(Nc3cccc(Cl)c3)nc(N[C@@H]3CCCC[C@@H]3N)nc21 [CGP74514A]
A) 71.1
